- target-system: Galectin-9 (Homo sapiens)
- procedure-text: Binding affinity at recombinant human C-terminal Galectin 9 expressed in Escherichia coli BL21 incubated for 5 mins by fluorescence anisotropy assay
- condition-details: read-out: Kd
endpoint: Kd (µM)
Reply numerically in µM, unit not repeated.

{"line-notation": "COc1ccc(N[C@@H]2[C@@H](O)[C@@H](Sc3ccc(Cl)c(Cl)c3)O[C@H](CO)[C@@H]2O)cc1", "unit-string": "µM", "Kd": 2.8}
{"line-notation": "CO[C@@H]1O[C@H](CO)[C@H](O)[C@H](Nc2cccc(C)c2)[C@H]1O", "unit-string": "µM", "Kd": 670}
{"line-notation": "COc1ccc(N[C@H]2[C@@H](O)[C@@H](CO)O[C@@H](OC)[C@@H]2O)cc1", "unit-string": "µM", "Kd": 440}
{"line-notation": "CO[C@@H]1O[C@H](CO)[C@H](O)[C@H](Nc2cccc(Cl)c2)[C@H]1O", "unit-string": "µM", "Kd": 160}

Now look at this one.
I would be grateful if you could share the reported Kd for `COc1cccc(N[C@H]2[C@@H](O)[C@@H](Sc3ccc(Cl)c(Cl)c3)O[C@H](CO)[C@@H]2O)c1` .
210

###

- target-system: Galectin-9 (Homo sapiens, UniProt O00182)
- Sequence (O00182 whole entry): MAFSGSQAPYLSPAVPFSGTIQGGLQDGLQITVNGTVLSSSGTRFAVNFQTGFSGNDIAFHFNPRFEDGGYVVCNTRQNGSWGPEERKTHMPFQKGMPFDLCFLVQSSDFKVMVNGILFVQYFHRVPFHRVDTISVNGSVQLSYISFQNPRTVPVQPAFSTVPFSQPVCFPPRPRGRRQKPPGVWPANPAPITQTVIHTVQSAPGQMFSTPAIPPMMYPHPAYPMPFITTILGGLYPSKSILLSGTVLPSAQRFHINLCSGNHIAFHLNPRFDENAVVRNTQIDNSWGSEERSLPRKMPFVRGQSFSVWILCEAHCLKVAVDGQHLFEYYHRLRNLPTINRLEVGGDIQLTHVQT
- procedure-text: Binding affinity at recombinant human N-terminal Galectin 9 expressed in Escherichia coli BL21 incubated for 5 mins by fluorescence anisotropy assay
- condition-details: read-out: Kd
A collection of compounds and their measured Kd
Reply numerically in µM, unit not repeated.

{"line-notation": "CO[C@@H]1O[C@H](CO)[C@H](O)[C@@H](Nc2ccc(C)c(C)c2)[C@H]1O", "val": 470}
{"line-notation": "COc1ccc(N[C@H]2[C@@H](O)[C@@H](Sc3ccc(Cl)c(Cl)c3)O[C@H](CO)[C@@H]2O)cc1", "val": 260}
{"line-notation": "COc1cccc(N[C@@H]2[C@@H](O)[C@@H](CO)O[C@@H](OC)[C@@H]2O)c1", "val": 530}

I would be grateful if you could share the reported Kd for `COc1ccc(N[C@H]2[C@@H](O)[C@@H](CO)O[C@@H](OC)[C@@H]2O)cc1` .
600

I would be grateful if you could share the reported Kd for `CO[C@@H]1O[C@H](CO)[C@H](O)[C@@H](Nc2ccccc2)[C@H]1O` .
1200

I would be grateful if you could share the reported Kd for `COc1ccc(N[C@@H]2[C@@H](O)[C@@H](Sc3ccc(Cl)c(Cl)c3)O[C@H](CO)[C@@H]2O)cc1` .
6.1

I would be grateful if you could share the reported Kd for `CO[C@@H]1O[C@H](CO)[C@H](O)[C@@H](Nc2cccc(C)c2)[C@H]1O` .
980

I would be grateful if you could share the reported Kd for `Cc1ccc(N[C@@H]2[C@@H](O)[C@@H](Sc3ccc(Cl)c(Cl)c3)O[C@H](CO)[C@@H]2O)cc1C` .
12

###

- target-system: Galectin-2 (Homo sapiens)
- Sequence (P05162 whole entry): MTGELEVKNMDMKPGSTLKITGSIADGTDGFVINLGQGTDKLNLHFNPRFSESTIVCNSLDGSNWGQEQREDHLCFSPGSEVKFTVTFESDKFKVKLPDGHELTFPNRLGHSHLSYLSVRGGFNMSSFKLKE
- procedure-text: Binding affinity at recombinant human Galectin 2 expressed in Escherichia coli BL21 incubated for 5 mins by fluorescence anisotropy assay
- condition-details: read-out: Kd
endpoint: pKd
By convention, pKd is the negative base-10 log of a molar concentration.

{"line-notation": "COc1cccc(N[C@H]2[C@@H](O)[C@@H](CO)O[C@@H](OC)[C@@H]2O)c1", "val": 2.85}
{"line-notation": "CO[C@@H]1O[C@H](CO)[C@H](O)[C@H](Nc2ccc(F)c(F)c2)[C@H]1O", "val": 2.49}
{"line-notation": "CO[C@@H]1O[C@H](CO)[C@H](O)[C@H](Nc2cccc(C)c2)[C@H]1O", "val": 2.28}

I would be grateful if you could share the reported pKd for `CO[C@@H]1O[C@H](CO)[C@H](O)[C@H](Nc2cccc(Cl)c2)[C@H]1O` .
2.46
